B1: EHEE_rd2_0191 (parent)
chain: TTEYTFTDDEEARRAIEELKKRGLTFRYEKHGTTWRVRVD

Variants of: B1
experimentNotes: folding stability dG (cDNA display proteolysis); higher = more stable
conditionContext: PBS, room temperature
I would appreciate it if you labelled entries 1 (yes) when folding stability dG is 2 kcal/mol or higher, otherwise 0 (no).

Solved cases below.
Exercise: Kindly determine if folding stability dG recorded for E11L is above or exactly 2 kcal/mol.
Solution: 0 (no)

Exercise: Okay, and E29V ?
Solution: 1 (yes)

Exercise: Okay, and T7Y ?
Solution: 1 (yes)

Below: the item to evaluate.
Exercise: Kindly determine if folding stability dG recorded for I16N is above or exactly 2 kcal/mol.
Solution: 0 (no)
